System: MS2 coat protein
Assay Remarks: apparent KD of MS2 coat protein; designed switch direction (-1 OFF switch, 1 ON switch): -1; higher = weaker reporter binding
Experimental Conditions: input ligand: microRNA oligo, concentration not stated
So I've got a bunch of sequences here, and I need their apparent KD of MS2 coat protein values.
One number for each entry, in nM.

Here's what some known entries look like.
Record Sequence | Measurement Unit | apparent KD of MS2 coat protein
UUAAUUAAUUAAUUAUAAGAUCAACAUGAGGAUCACCCAUGUGAGGAUAUCAGCUCGUGUAGAGCUGAGAAGGCACAAAUAAUU [ExNG3/16-B3] (Eterna round: R96, puzzle: Exclusion NG 3) | nM | 27.9
UCUAUUUUGCGAGGAUAUCGACCAUUCCUCUUUACAUGAGGAUCACCCAUGUUCUUUUUCUACAACGAGAAGGCGCUCUAAGUU [JR_ExcNG2_Sub061] (Eterna round: R96, puzzle: Exclusion NG 2) | nM | 65

Now turn to the next sequence.
Fill in: apparent KD of MS2 coat protein of UAUUGUUUUUUUUUAAAUUACAUGAGGAUCACCCAUGUUUUUUUUUUUUUGGUGAUUAUUUUUUGUCUUUUUUUUUU [Jieuxbot 037 - Jieux - Sensor v2, turn-off variant] (Eterna round: R96, puzzle: Sensor v2, turn-off variant) is ___
69

* * *

Test system: MS2 coat protein
Assay Remarks: apparent KD of MS2 coat protein; designed switch direction (-1 OFF switch, 1 ON switch): -1; higher = weaker reporter binding
Experimental Conditions: input ligand: none
So I've got a bunch of sequences here, and I need their apparent KD of MS2 coat protein values.
Please don't drop the unit; write it after the number.

Record Sequence | Data Value
AUUAUGUUAGGAUAUGCUUAUGGUGGAUAAUCGGAUAUGAUGCAGAAGGGACAUGAGGAUCACCCAUGUACUGU [EX4 #23] (Eterna round: R97, puzzle: Exclusion 4) | 22.1 nM
ACAUUGUAUGUGAGGAUAUCGAUGGGAUGGGUUGUCGAGAAGGCACAUGAGGAUCACCCAUGUAAGGGACAGCA [JR_BMEx4_Sub029] (Eterna round: R97, puzzle: Brourd's mod of Exclusion 4) | 83.1 nM
ACAUGAGGCGAAGGAUAUCUUUAGAGGAUUACCAGAGAAGGUCGACAUGAGGAUCACCCAUGUACAUGAGGGUCUUGAAUGUUA [9th something] (Eterna round: R96, puzzle: Exclusion NG 1) | 250 nM
AUAAGUAUAUAGGAUAUCUAGCUGGAAACAGCUAGAGAAGGAUGUACAUGAGGAUCACCCAUGUAAAUCAAUAG [Ex6/8-A2] (Eterna round: R97, puzzle: Exclusion 6) | 19.6 nM

Now turn to the next sequence.
Fill in: apparent KD of MS2 coat protein of CAGUACUGAGGAUAUACAUGAGGAUCACCCAUGUGAGAAAUACUAGUGAGGUCGAUUAGUAGAAGGCAGUACUG [Mat - Exclusion 3 - Eli Mod - D31] (Eterna round: R97, puzzle: Exclusion 3) is ___
35.4 nM

* * *

System: K4 kissing-loop RNA reporter;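 also: bound reporter read as fluorescence of individual clusters on recovered sequencing chips by microscopy, with normalized cluster intensities fitted with a binding model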
Assay Remarks: apparent KD of K4 kissing-loop reporter; higher = weaker reporter binding
Experimental Conditions: Eterna round: R107; input ligand: FMN 200 uM
So I've got a bunch of sequences here, and I need their apparent KD of K4 kissing-loop reporter values.

Here's what some known entries look like.
Record Sequence | apparent KD of K4 kissing-loop reporter
ACCUGUGACUGAAGGAGCGUCUACUCCAGAGGAUGGAGUGAUGUUCCACUUUAAUGGAGUGGACAGGUAGGUCGCAGUCAUAGGA [Arg B SS t6] | 126 nM
UGAUACCAGACUGAUACCAGCCAGUGAUGUUGGCUAAGCCGAAGAGGUGUCAUAGACACCGGCCCUUGGCAGCAGUCUGGUAUCU [#07 K4 Theophylline B Exclusion] | 120 nM

Fill in: apparent KD of K4 kissing-loop reporter of GUAUCGCUAGGAGGAUAUUUCAAAUAAUAAAUAAAUGGUUAUACGGAGUGAUGUUCCGAUUUACGGAAAGAAGGCCUAGUGAUAC [FMN B 3] is ___
118 nM
